This listing pairs molecules with measured minimal effective concentration.
Tested on: p53 in A2780 cells
experiment-notes: p53 ELISA (preservation of p53 in A2780 cells)
Assay type: cell-based
test-conditions: Homo sapiens, treated with compound for 16 hours, read-out: p53-elisa LAD (lowest dose giving at least 140% of the value for p53 present in the control)

molecule | minimal effective concentration
CC1CN(CCc2c[nH]c3ccccc23)c2ccc(Nc3ccnc(CO)c3)cc2O1 (centres unmarked) | 10 µM
Cc1cccc2c(CCN3CC4(CCCCC4)Oc4cc(Nc5ccncc5)ccc43)c[nH]c12 | > 10 µM
Cc1cccc2c(CCN3CC(C)Oc4cc(Nc5ccncc5)ccc43)coc12 (centres unmarked) | > 10 µM
COc1cccc2c(CCN3CCOc4cc(Nc5ccnc6c5CCC6O)ccc43)c[nH]c12 (centres unmarked) | > 10 µM
OC1CCc2c(Nc3cc(F)c4c(c3)OCCN4CCc3c[nH]c4ccccc34)ccnc21 (centres unmarked) | 1 µM
OCc1cc(Nc2ccc3c(c2)OC2(CCSCC2)CN3CCc2c[nH]c3ccccc23)ccn1 | > 10 µM
OC1CCc2c(Nc3ccc4c(c3)OC3(CCCC3)CN4CCc3c[nH]c4ccccc34)ccnc21 (centres unmarked) | 3 µM
O=C1N(CCc2c[nH]c3ccccc23)c2ccc(Nc3ccncc3)cc2OC1(F)F | > 10 µM
CC1CN(CCc2c[nH]c3ccccc23)c2ccc(Nc3ccncc3)cc2O1 (centres unmarked) | > 10 µM
OCc1cc(Nc2ccc3c(c2)OC2(CCCCC2)CN3CCc2c[nH]c3ccccc23)ccn1 | > 10 µM
OC1CCc2c(Nc3ccc4c(c3)OC3(CCNCC3)CN4CCc3c[nH]c4ccccc34)ccnc21 (centres unmarked) | > 10 µM
c1ccc2c(CCN3CCCc4cc(Nc5ccncc5)ccc43)c[nH]c2c1 | > 10 µM
Cc1cccc2c(CCN3CC(C)(C)Oc4cc(Nc5ccnc(CO)c5)ccc43)c[nH]c12 | > 10 µM
O=C1N(CCc2c[nH]c3ccccc23)c2ccc(Nc3ccnc4c3CCC4O)cc2OC1(F)F (centres unmarked) | 0.3 µM
